System: HepG2
Assay: cytotoxicity call (relative viability < 0.9)
Conditions: 10 µM
Screen size: about 39,000 compounds; about 3,300 (8.5%) were called active. Shown is part of a subset that was picked to be rich in actives.
Would you mind answering with one of these outcomes? active, inactive

> print(dat)
                                   compound  classassignment
1  Cc1ccc(S(=O)(=O)N(C)C[C@@H]2Oc3cc(C#Cc4ccncc4)ccc3S(=O)(=O)N([C@H](C)CO)C[C@H]2C)cc1           active
2  C[C@H](CO)N1C[C@H](C)[C@H](CN(C)Cc2ccc(Cl)c(Cl)c2)Oc2c(NC(=O)Nc3cccc4ccccc34)cccc2C1=O         inactive
3  Cc1ccc(C(=O)C(C)CN2CCCCC2)cc1.Cl (stereo not given)         inactive
4  C[C@H]1CN([C@@H](C)CO)C(=O)Cc2cc(NC(=O)Nc3ccc(F)cc3)ccc2O[C@H]1CN(C)C(=O)Nc1ccc(C(F)(F)F)cc1         inactive

Recorded call for `Cc1ccc(S(=O)(=O)N(C)C[C@H]2Oc3cc(C#Cc4ccncc4)ccc3S(=O)(=O)N([C@@H](C)CO)C[C@@H]2C)cc1` ?
active

Recorded call for `CCS(=O)(=O)Nc1ccc2c(c1)C(=O)N(C)[C@@H]1CC[C@H](CC(=O)NCc3ccccc3F)O[C@H]1CO2` ?
inactive

Recorded call for `C[C@@H]1CN([C@@H](C)CO)S(=O)(=O)c2ccc(C#Cc3ccc(F)cc3)cc2O[C@H]1CN(C)S(=O)(=O)c1cn(C)cn1` ?
inactive

Recorded call for `Cn1c(=O)cnn(CCCCN2CCN(c3ncccn3)CC2)c1=O` ?
inactive

Recorded call for `COc1ccc(S(=O)(=O)N(C)C[C@@H]2Oc3c(NC(=O)Nc4c(C)noc4C)cccc3C(=O)N([C@H](C)CO)C[C@@H]2C)cc1` ?
inactive

Recorded call for `C[C@@H]1CN([C@H](C)CO)C(=O)Cc2cc(NC(=O)Nc3ccc(F)cc3)ccc2O[C@@H]1CN(C)C(=O)Nc1ccc(C(F)(F)F)cc1` ?
inactive

Recorded call for `Cc1noc(C)c1S(=O)(=O)N(C)C[C@H]1Oc2c(NS(=O)(=O)c3cn(C)cn3)cccc2C(=O)N([C@@H](C)CO)C[C@H]1C` ?
inactive

Recorded call for `COc1ccc(S(=O)(=O)N(C)C[C@H]2Oc3ccc(NS(=O)(=O)c4ccccc4)cc3CC(=O)N([C@H](C)CO)C[C@@H]2C)cc1` ?
inactive

Recorded call for `CCCC#Cc1cnc2c(c1)C(=O)N([C@H](C)CO)C[C@H](C)[C@@H](CN(C)S(=O)(=O)c1cn(C)cn1)O2` ?
inactive

Recorded call for `Cc1ccc(S(=O)(=O)N(C)C[C@H]2Oc3cc(C#Cc4ccccc4)ccc3S(=O)(=O)N([C@H](C)CO)C[C@H]2C)cc1` ?
inactive

Recorded call for `Cc1ccc(S(=O)(=O)N(C)C[C@@H]2Oc3cc(C#Cc4ccccc4)ccc3S(=O)(=O)N([C@@H](C)CO)C[C@H]2C)cc1` ?
inactive

Recorded call for `NCc1ccc(S(=O)(=O)O)cc1` ?
inactive

Recorded call for `Cc1ccc(S(=O)(=O)N(C)C[C@H]2Oc3cc(C#Cc4ccncc4)ccc3S(=O)(=O)N([C@H](C)CO)C[C@H]2C)cc1` ?
active

Recorded call for `COc1ccccc1CNC(=O)C[C@@H]1CC[C@H]2[C@@H](COC[C@@H](O)CN2C(=O)Nc2ccc(F)cc2)O1` ?
inactive

Recorded call for `Cc1ccc(S(=O)(=O)N(C)C[C@@H]2Oc3cc(C#Cc4ccccc4)ccc3S(=O)(=O)N([C@@H](C)CO)C[C@@H]2C)cc1` ?
inactive

Recorded call for `C[C@H](CO)N1C[C@H](C)[C@@H](CN(C)C(=O)C2CCOCC2)Oc2cc(-c3ccc(C(=O)N(C)C)cc3)ccc2S1(=O)=O` ?
inactive

Recorded call for `Cc1noc(C)c1NC(=O)N(C)C[C@H]1Oc2ccc(NC(=O)NC(C)C)cc2C(=O)N([C@H](C)CO)C[C@H]1C` ?
inactive

Recorded call for `O=C(C[C@@H]1CC[C@H]2[C@@H](COC[C@@H](O)CN2Cc2cc(F)ccc2F)O1)N[C@@H]1CCN(Cc2ccccc2)C1` ?
inactive

Recorded call for Cl.O=C(Nc1ccccc1)OCC(CN1CCCCC1)OC(=O)Nc1ccccc1 (stereo not given) ?
active

Recorded call for `NCc1nnnn1-c1ccc(F)cc1` ?
inactive

Recorded call for `C[C@H](CO)N1C[C@H](C)[C@@H](CN(C)C(=O)Nc2ccc(C(F)(F)F)cc2)Oc2ccc(NC(=O)Nc3ccc(F)cc3)cc2CC1=O` ?
active

Recorded call for `Cc1noc(C)c1S(=O)(=O)Nc1cccc2c1O[C@H](CN(C)C(=O)Nc1ccc3c(c1)OCO3)[C@H](C)CN([C@@H](C)CO)C2=O` ?
inactive
